Tested on: Plasmodium falciparum
Assay: Antiplasmodial activity against chloroquine-sensitive Plasmodium falciparum 3D7 infected in human RBCs after 72 hrs by SYBR Green based parasite proliferation assay
Assay type: functional, organism-based
Conditions: 3D7, 72 h
property.measured: IC50 (µM)

# compound.string, property.measured, observed.value
records = [
    ("C=C1CC[C@@]2(N=C=S)[C@H]3[C@H](CC[C@@H]2C)[C@@H](C)C[C@@H](CC(C)(C)N=C=S)[C@H]13", "IC50", 11.8),
    ("C=C1CC[C@@]2(N=C=[Se])[C@H]3[C@H](CC[C@@H]2C)[C@@H](C)C[C@@H](CC(C)(C)N=C=[Se])[C@H]13", "IC50", 0.0025),
]

* * *

Test: Selectivity index, ratio of IC50 for African green monkey Vero cells to IC50 for chloroquine-sensitive Plasmodium falciparum 3D7
Assay type: toxicity, cell-based
Settings: read-out: Ratio IC50

# compound.string, result.qualifier, selectivity ratio
records = [
    ("C=C1CC[C@@]2(N=C=[Se])[C@H]3[C@H](CC[C@@H]2C)[C@@H](C)C[C@@H](CC(C)(C)N=C=[Se])[C@H]13", "=", 19400),
    ("C=C1CC[C@@]2(N=C=S)[C@H]3[C@H](CC[C@@H]2C)[C@@H](C)C[C@@H](CC(C)(C)N=C=S)[C@H]13", ">", 8),
    ("[C-]#[N+]C(C)(C)C[C@@H]1C[C@H](C)[C@H]2CC[C@H](C)[C@@]3([N+]#[C-])CCC(=C)[C@@H]1[C@H]23", "=", 83100),
]

* * *

Test: Selectivity index, ratio of IC50 for African green monkey Vero cells to MIC for Mycobacterium tuberculosis H37Rv ATCC 27294
Format: toxicity, cell-based
Conditions: read-out: Selectivity Index

# compound, result.qualifier, selectivity ratio
records = [
    ("C=C1CC[C@@]2(N=C=S)[C@H]3[C@H](CC[C@@H]2C)[C@@H](C)C[C@@H](CC(C)(C)N=C=S)[C@H]13", ">", 1),
    ("CO[C@H]1/C=C/O[C@@]2(C)Oc3c(C)c(O)c4c(O)c(c(/C=N/N5CCN(C)CC5)c(O)c4c3C2=O)NC(=O)/C(C)=C\\C=C\\[C@H](C)[C@H](O)[C@@H](C)[C@@H](O)[C@@H](C)[C@H](OC(C)=O)[C@@H]1C [RIFAMPIN]", ">", 1100),
    ("C=C1CC[C@@]2(N=C=[Se])[C@H]3[C@H](CC[C@@H]2C)[C@@H](C)C[C@@H](CC(C)(C)N=C=[Se])[C@H]13", "=", 12.4),
    ("[C-]#[N+]C(C)(C)C[C@@H]1C[C@H](C)[C@H]2CC[C@H](C)[C@@]3([N+]#[C-])CCC(=C)[C@@H]1[C@H]23 [DIISOCYANOAMPHILECTENE]", "=", 10.2),
]

* * *

molecules and their reported selectivity ratio
Test: Selectivity index, ratio of IC50 for African green monkey Vero cells to IC50 for chloroquine-resistant Plasmodium falciparum Dd2
Format: toxicity, cell-based
Conditions: read-out: Ratio IC50

# compound.string, result.qualifier, selectivity ratio
rows = [
    ("[C-]#[N+]C(C)(C)C[C@@H]1C[C@H](C)[C@H]2CC[C@H](C)[C@@]3([N+]#[C-])CCC(=C)[C@@H]1[C@H]23", "=", 32200),
    ("C=C1CC[C@@]2(N=C=[Se])[C@H]3[C@H](CC[C@@H]2C)[C@@H](C)C[C@@H](CC(C)(C)N=C=[Se])[C@H]13", "=", 7360),
    ("C=C1CC[C@@]2(N=C=S)[C@H]3[C@H](CC[C@@H]2C)[C@@H](C)C[C@@H](CC(C)(C)N=C=S)[C@H]13", ">", 9),
]
